measurement_protocol: Pharmacokinetics and bioavailability test in beagle dogs (Test Example 3)
Type: in vivo
reported_conditions: dog; PO 5 mg/kg (calculated as free base), capsules, male beagle dogs, plasma
quantity: AUC(0-t) (ng·h/mL)
Report as a plain number; the unit ng·h/mL is understood.

IN: Sample CN1CCC(N2Cc3cc(F)ccc3CN(Cc3ccc(OC4CC4)cc3)C2=O)CC1.O=C(O)CC(O)(CC(=O)O)C(=O)O [Crystalline form II] — what was its AUC(0-t)?
OUT: 139

----------
measurement_protocol: Pharmacokinetics and bioavailability test in beagle dogs (Test Example 4)
Type: in vivo
reported_conditions: dog, in vivo, IV 0.69 mg/kg (calculated based on free base), read-out: Vdss
Description: Experimental method: Six healthy beagle dogs were randomly divided into two groups, with two dogs (one female and one male) in the first group, and four dogs (two females and two males) in the second group. […] Plasma was obtained by centrifugation, and drug concentrations in plasma at different time points were measured using LC-MS/MS. Pharmacokinetic parameters and the absolute oral bioavailability were calculated using WinNonlin8.0 software.
quantity: Vd (L/kg)
Report as a plain number; the unit L/kg is understood.

IN: Sample CN1CCC(N2Cc3cc(F)ccc3CN(Cc3ccc(OC4CC4)cc3)C2=O)CC1 [citrate] — what was its Vd?
OUT: 2.5

----------
measurement_protocol: Pharmacokinetics and bioavailability test in beagle dogs (Test Example 4)
Type: in vivo
reported_conditions: both sexes, dog, plasma, PO 10 mg/kg (calculated based on free base), capsule, absolute oral bioavailability
quantity: bioavailability
Number plus unit, in that order.

IN: Sample CN1CCC(N2Cc3cc(F)ccc3CN(Cc3ccc(OC4CC4)cc3)C2=O)CC1.O=C(O)CC(O)(CC(=O)O)C(=O)O [Crystalline form II] — what was its bioavailability?
OUT: 94.8%
